Assay: Odor evaluation for ultraviolet absorbers after a time has elapsed (storage for 3 weeks)
Type: physicochemical
Settings: stored in the dark at 50° C. for 3 weeks; 10 ranks: 1, no odor; 10, very intense odor
value_type: Odor evaluation for ultraviolet absorber after a time has elapsed: In the dark

> print(dat)
                                   compound  observed.value
1  CCCCC(CC)COC(=O)C=Cc1ccc(OC)cc1 (stereo not drawn) [Example 2, 2-ethylhexyl p-methoxycinnamate]               2
2  CCCCC(CC)COC(=O)C=Cc1ccc(OC)cc1 (stereo not drawn) [compound 3, 2-ethylhexyl p-methoxycinnamate]               4
3  CCCCC(CC)COC(=O)C=Cc1ccc(OC)cc1 (stereo not drawn) [compound 5, 2-ethylhexyl p-methoxycinnamate]               3
4  CCCCC(CC)COC(=O)C=Cc1ccc(OC)cc1 (stereo not drawn) [compound 2, 2-ethylhexyl p-methoxycinnamate]               5

I = CCCCC(CC)COC(=O)C=Cc1ccc(OC)cc1 (stereo not drawn) [compound 1, 2-ethylhexyl p-methoxycinnamate]
II = CCCCC(CC)COC(=O)C=Cc1ccc(OC)cc1 (stereo not drawn) [compound 8, 2-ethylhexyl p-methoxycinnamate]
[ask] Between I and II , whose recorded Odor evaluation for ultraviolet absorber after a time has elapsed: In the dark is greater? Please indicate the selected item by its label.
[reply] I
